- Tested on: rodent lifetime carcinogenesis bioassay, tumor incidence TD50
- assay_method_text: carcinogenic potency in animals, long-term in vivo studies, CPDB compilation (AID 1745844)
- assay_setup: mouse; strain B6C3F1; females; in feed; site: ovary; lesion: tubular adenoma; dosed 103 weeks; study length 105 weeks
assay_readout: TD50

[in] Consider the molecule O=C1CN(N=Cc2ccc([N+](=O)[O-])o2)C(=O)N1 . State its measured TD50.
[out] 2530 mg/kg/day

###

- Tested on: rodent lifetime carcinogenesis bioassay, tumor incidence TD50
- assay_method_text: carcinogenic potency in animals, long-term in vivo studies, CPDB compilation (AID 1745844)
- assay_setup: rat; strain Fischer 344; males; in feed; site: liver; lesion: hepatocellular carcinoma; dosed 101 weeks; study length 101 weeks
assay_readout: TD50

[in] Report TD50 under test system rodent lifetime carcinogenesis bioassay, tumor incidence TD50 for Cc1cc(C)c(N)cc1C .
[out] 71.8 mg/kg/day
